Tested on: Saccharomyces cerevisiae
Assay: DNA damaging activity against RAD52 transformed Saccharomyces cerevisiae in glucose minimal medium after 41 hrs
Assay type: functional, organism-based
Metric: IC50 (µM)

Problem: I'd like to know its IC50. The compound in question is COc1c(O[C@@H]2O[C@H](CO)[C@@H](O)[C@H](O)[C@H]2O)cc2c(=O)oc3c4c(cc5c(=O)oc1c2c35)OCO4 [NYSSOSIDE]
Solution: 1.12

a: COc1c(O)cc2c(=O)oc3c(OC)c(O[C@@H]4OC[C@@H](O)[C@H](O)[C@H]4O)cc4c(=O)oc1c2c34
b: C[C@@H]1O[C@@H](Oc2c(-c3ccc(O)cc3)oc3cc(O)cc(O)c3c2=O)[C@H](O)[C@H](O)[C@H]1O [AFZELIN]
Problem: Rank a against b by their IC50 values and give the higher one. // caller expects the label of the chosen entry
Solution: b
(b: 7.4 µM, a: 3.1 µM)
